Source of measurements: patent US20190352276A1

Test system: HepG2 cells (hepatocellular carcinoma)
assayComment: General cytotoxicity on HepG2 cells (CC50; therapeutic index CC50 HepG2/IC50 Mino)
Assay type: cell-based
testContext: Table 11; therapeutic index
readoutKind: CC50 (HepG2)/IC50 (Mino)
The response must contain the number and no unit.

Entry "C=CC(=O)N1CCC[C@@H](n2nc(-c3ccc(Oc4ccncc4)cc3)c3cncc(C#N)c32)C1" ; CC50 (HepG2)/IC50 (Mino) = 3.81

Entry C=CC(=O)N1CCC[C@@H](n2nc(-c3ccc(Oc4ccccc4)cc3)c3c(N)ncnc32)C1 [Ibrutinib, ibrutinib, reference compound] ; CC50 (HepG2)/IC50 (Mino) = 5.98

Entry "C=CC(=O)N1CCC[C@@H](n2nc(-c3ccc(Oc4ccncc4)cc3)c3c(N)ncc(C#N)c32)C1" ; CC50 (HepG2)/IC50 (Mino) = 5.80

Entry "C=CC(=O)N1CCC[C@@H](n2nc(-c3ccc(Oc4ccncc4)cc3)c3cncc(Cl)c32)C1" ; CC50 (HepG2)/IC50 (Mino) = 4.18

Entry "C=CC(=O)N1CCC[C@@H](n2nc(-c3ccc(Oc4ccncc4)cc3)c3c(N)ncc(Cl)c32)C1" ; CC50 (HepG2)/IC50 (Mino) = 3.88
